The measured values listed here are drawn from patent US12209087B2.

# TARGET OR TEST SYSTEM: full length AKT E17K (Homo sapiens, UniProt P31749, E17K)
# Construct: host or cells: HEK-293 (ATCC CRL-1573)
# Sequence (P31749 whole entry E17K): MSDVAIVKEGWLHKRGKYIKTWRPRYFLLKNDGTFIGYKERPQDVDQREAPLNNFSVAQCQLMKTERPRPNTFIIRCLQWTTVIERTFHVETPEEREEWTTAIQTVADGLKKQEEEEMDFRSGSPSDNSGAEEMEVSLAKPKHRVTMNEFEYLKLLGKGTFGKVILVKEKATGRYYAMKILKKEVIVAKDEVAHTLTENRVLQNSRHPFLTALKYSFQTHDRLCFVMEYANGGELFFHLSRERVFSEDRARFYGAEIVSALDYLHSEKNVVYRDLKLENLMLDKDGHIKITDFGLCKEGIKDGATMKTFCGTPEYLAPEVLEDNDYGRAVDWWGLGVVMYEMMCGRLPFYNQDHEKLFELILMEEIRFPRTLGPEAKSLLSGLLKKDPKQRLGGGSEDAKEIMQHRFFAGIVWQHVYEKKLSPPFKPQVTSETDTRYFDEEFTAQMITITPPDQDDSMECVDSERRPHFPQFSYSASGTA
# ASSAY PROCEDURE: NanoBRET Target Engagement (TE) Assay
# Type: cell-based
# CONDITION PARAMETERS: competitive tracer displacement in living cells, read-out: AKT1 E17K IC50
A collection of molecules and their measured IC50

Example cases with answers are listed next.
{"columns": ["MOLECULE", "READOUT VALUE"],
 "data": [
  ["C[C@@H]1CN(Cc2ccc(-n3c(-c4cccnc4N)nc4ccc(-c5ccccc5)nc43)cc2)CCN1c1ncnc(C#N)n1", "< 15 nM"],
  ["N#Cc1cnccc1C(=O)NC1CCN(Cc2ccc(-n3c(-c4cccnc4N)nc4cccnc43)cc2)CC1", "600 to 10000 nM"],
  ["N#Cc1nccc(N2CCN(Cc3ccc(-n4c(-c5cccnc5N)nc5ccc(-c6ccccc6F)nc54)cc3)CC2)n1", "< 15 nM"]
]}

Query string: Return IC50 measured with full length AKT E17K (Homo sapiens, UniProt P31749, E17K) given this molecule: N#Cc1nccc(NC2C3CCC2CN(Cc2ccc(-n4c(-c5cccnc5N)nc5ccc(-c6ccccc6)nc54)cc2)C3)n1 (stereo not shown)
Result string: 60 to 600 nM

----------
# TARGET OR TEST SYSTEM: full length AKT E17K (Homo sapiens, UniProt P31749, E17K)
# Construct: host or cells: HEK-293 (ATCC CRL-1573)
# ASSAY PROCEDURE: NanoBRET Target Engagement (TE) Assay
# Format: cell-based
# CONDITION PARAMETERS: competitive displacement of tracer in cells, read-out: AKT1 E17K IC50
# Method: The NanoBRET™ Target Engagement (TE) Intracellular Kinase Assays are based on the NanoBRET™ System (Promega Corporation), an energy transfer technique designed to measure molecular proximity in living cells. […] All cells were evaluated for viability prior to transfection and optimization of the transfection was done prior to experimentation. […] Milli-BRET units (mBU) are calculated by multiplying the raw BRET values by 1000. […]
pIC50: −log10 of the molar value.
RESULT TYPE: pIC50

{"columns": ["RECORD SMILES", "RESULT TYPE", "READOUT VALUE"],
 "data": [
  ["[2H]C1(Nc2ccnc(C#N)n2)CCN(Cc2ccc(-n3c(-c4cccnc4N)nc4cc(C)c(C)nc43)cc2)CC1", "pIC50", "> 7.82"]
]}

Query string: Record N#Cc1ncnc(N2C[C@@H]3C[C@H]2CN3Cc2ccc(-n3c(-c4cccnc4N)nc4ccc(-c5ccccc5)nc43)cc2)n1 : what is its pIC50 with full length AKT E17K (Homo sapiens, UniProt P31749, E17K)?
Result string: 7.22 to 7.82

Query string: // fetch full length AKT E17K (Homo sapiens, UniProt P31749, E17K) pIC50 for CN1CCN(c2ccc3nc(-c4cccnc4N)n(-c4ccc(CN5CCN(c6ccnc(C#N)n6)CC5)cc4)c3n2)CCC1=O
Result string: 6.22 to 7.22

Query string: Value wanted: pIC50 (full length AKT E17K (Homo sapiens, UniProt P31749, E17K)) of entry Cn1c(-c2ccc3nc(-c4cccnc4N)n(-c4ccc(CN5CCN(c6ccnc(C#N)n6)CC5)cc4)c3n2)cccc1=O
Result string: 5.00 to 6.22

Query string: # query: pIC50 | item [2H]C([2H])([2H])n1ncc(-c2ccc3nc(-c4nccnc4N)n(-c4ccc(CN5CCC(Nc6ccnc(C#N)n6)CC5)cc4)c3n2)n1 | system: full length AKT E17K (Homo sapiens, UniProt P31749, E17K)
Result string: > 7.82

Query string: So what pIC50 did N#Cc1cnc2c(c1)nc(-c1cccnc1N)n2-c1ccc(CN2CCC(Nc3ccnc(C#N)n3)CC2)cc1 get with full length AKT E17K (Homo sapiens, UniProt P31749, E17K)?
Result string: 7.22 to 7.82

Query string: Param readout = pIC50; param system = full length AKT E17K (Homo sapiens, UniProt P31749, E17K); param query = C#Cc1ccc2nc(-c3cccnc3N)n(-c3ccc(CN4CCC(Nc5ccnc(C#N)n5)CC4)cc3)c2n1 ; response: value
Result string: > 7.82

Query string: full length AKT E17K (Homo sapiens, UniProt P31749, E17K) / pIC50 / N#Cc1nccc(NC2CCN(Cc3ccc(-n4c(-c5cccnc5N)nc5cc(C#N)c(-c6ccc(F)cc6)nc54)cc3)CC2)n1 : value?
Result string: > 7.82

Query string: Lab request: please report pIC50 under test system full length AKT E17K (Homo sapiens, UniProt P31749, E17K) for N#Cc1nccc(NC2CCN(Cc3ccc(-n4c(-c5cccnc5N)nc5ccc(CO)nc54)cc3)CC2)n1
Result string: 7.22 to 7.82

----------
# maps each entry to its IC50
# TARGET OR TEST SYSTEM: full length AKT E17K (Homo sapiens, UniProt P31749, E17K)
# Construct: host or cells: HEK-293 (ATCC CRL-1573)
# ASSAY PROCEDURE: NanoBRET Target Engagement (TE) Assay
# Assay type: cell-based
# CONDITION PARAMETERS: competitive tracer displacement in living cells, read-out: AKT1 E17K IC50

Consider the following illustrative entries.
{"columns": ["RECORD SMILES", "RESULT TYPE", "READOUT VALUE"],
 "data": [
  ["N#Cc1cc(NC2CCN(Cc3ccc(-n4c(-c5cccnc5N)nc5cccnc54)cc3)CC2)ccn1", "IC50", "600 to 10000 nM"],
  ["N#Cc1ncnc(N2CC3CCC(C2)N3Cc2ccc(-n3c(-c4cccnc4N)nc4ccc(N5CCOCC5)nc43)cc2)n1", "IC50", "< 15 nM"],
  ["N#Cc1ccnc(N2CCN(Cc3ccc(-n4c(-c5cccnc5N)nc5ccc(-c6cccc(F)c6)nc54)cc3)CC2)n1", "IC50", "15 to 60 nM"]
]}

Query string: GET /values?readout=IC50&item= CN(C)C(=O)c1ccc2nc(-c3cccnc3N)n(-c3ccc(CN4CCC(Nc5ccnc(C#N)n5)CC4)cc3)c2n1
Result string: 60 to 600 nM

Query string: Name the reported IC50 value associated with the molecule CC(=O)Nc1cccc(-c2ccc3nc(-c4cccnc4N)n(-c4ccc(CN5CCN(c6cccc(C#N)n6)CC5)cc4)c3n2)c1
Result string: 60 to 600 nM

Query string: # get_value(readout='IC50', item= N#Cc1nccc(C(=O)NCc2ccc(-n3c(-c4cccnc4N)nc4cccnc43)cc2)n1 )
Result string: 600 to 10000 nM

Query string: I have this molecule here, N#Cc1ncccc1C(=O)N1CCN(Cc2ccc(-n3c(-c4cccnc4N)nc4ccc(-c5ccccc5)nc43)cc2)CC1 , and I need its recorded IC50.
Result string: 60 to 600 nM

----------
# TARGET OR TEST SYSTEM: full length AKT E17K (Homo sapiens, UniProt P31749, E17K)
# Construct: host or cells: HEK-293 (ATCC CRL-1573)
# ASSAY PROCEDURE: NanoBRET Target Engagement (TE) Assay
# Format: cell-based
# CONDITION PARAMETERS: competitive displacement of tracer in cells, read-out: AKT1 E17K IC50
RESULT TYPE: IC50

{"columns": ["MOLECULE", "IC50"],
 "data": [
  ["N#Cc1nccc(N2CCN(Cc3ccc(-n4c(-c5cccnc5N)nc5ccc(-c6ccncc6C#N)nc54)cc3)CC2)n1", "15 to 60 nM"],
  ["N#Cc1nccc(NC2CCN(Cc3ccc(-n4c(-c5cccnc5N)nc5ccc(-c6ccc(=O)n(C(F)F)c6)nc54)cc3)CC2)n1", "15 to 60 nM"],
  ["Cc1cc(-c2ccc3nc(-c4cccnc4N)n(-c4ccc(CN5CCC(Nc6ccnc(C#N)n6)CC5)cc4)c3n2)[nH]n1", "< 15 nM"]
]}

Query string: Fill in the blank: the reported IC50 of [2H]C1(Nc2ccnc(C#N)n2)CCN(Cc2ccc(-n3c(-c4cccnc4N)nc4cccnc43)cc2)CC1 is ____.
Result string: 15 to 60 nM

Query string: Can you look up the measured IC50 of N#Cc1nccc(NC2CCN(Cc3ccc(-n4c(-c5cccnc5N)nc5nccnc54)cc3)CC2)n1 for me?
Result string: 15 to 60 nM

Query string: Which IC50 reading was recorded for the molecule N#Cc1cc(NC2CCN(Cc3ccc(-n4c(-c5cccnc5N)nc5ccc(-c6cccc(Cl)c6)nc54)cc3)CC2)ncn1 ?
Result string: 15 to 60 nM

Query string: Look at this molecule and give its reported IC50. Cc1nocc1-c1ccc2nc(-c3cccnc3N)n(-c3ccc(CN4CCC(Nc5ccnc(C#N)n5)CC4)cc3)c2n1
Result string: < 15 nM

Query string: I would be grateful if you could share the reported IC50 for CC1(Nc2ccnc(C#N)n2)CCN(Cc2ccc(-n3c(-c4cccnc4N)nc4cccnc43)cc2)CC1 .
Result string: 60 to 600 nM

Query string: Look at this molecule and give its reported IC50. N#Cc1nccc(N2CCN(Cc3ccc(-n4c(-c5cccnc5N)nc5ccc(-c6cccnc6C#N)nc54)cc3)CC2)n1
Result string: 15 to 60 nM

Query string: Quick check: IC50 of N#Cc1nccc(NC2CCN(Cc3ccc(-n4c(-c5cccnc5N)nc5ccc(OCF)nc54)cc3)CC2)n1 ?
Result string: < 15 nM
